Tested on: CAL-29
Test: Further cell proliferation assay, X-Celligence RTCA, CAL-29
Assay type: cell-based
readout.name: pEC50
// returns pEC50 (minus log10 of molar concentration), number only

Please report pEC50 for the following compound: CNc1ncnc2c1ccn2[C@@H]1C[C@H](CNCCCNCCc2cccc(Oc3ccccc3)c2)[C@@H](O)[C@H]1O
5.19

* * *

Biological target: KMT9 (Homo sapiens, UniProt Q9Y5N5)
Sequence (Q9Y5N5 1-214): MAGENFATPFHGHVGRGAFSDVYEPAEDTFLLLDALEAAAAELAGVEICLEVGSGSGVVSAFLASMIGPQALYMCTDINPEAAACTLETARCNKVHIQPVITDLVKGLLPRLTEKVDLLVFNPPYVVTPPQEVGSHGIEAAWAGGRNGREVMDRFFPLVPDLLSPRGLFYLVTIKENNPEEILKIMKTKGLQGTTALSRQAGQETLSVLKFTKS
Sequence (Q9UI30 1-120 isoform Q9UI30-2 partner): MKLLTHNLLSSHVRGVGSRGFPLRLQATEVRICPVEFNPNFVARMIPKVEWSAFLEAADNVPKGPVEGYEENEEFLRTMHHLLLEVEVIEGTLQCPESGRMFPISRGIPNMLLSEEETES
Assay: KMT9 thermal shift assay (SyproOrange)
Format: binding
Settings: ΔTm; 500 µM compound, 2 μM KMT9, 5X SO; read-out: Thermal shift
Provide the recorded ΔTm at 500 µM for the entries that follow.

Provide the reported ΔTm at 500 µM (system: KMT9 (Homo sapiens, UniProt Q9Y5N5)) for CNc1ncnc2c1ccn2[C@@H]1C[C@H](CN2CCC[C@]23CCCNC3)[C@@H](O)[C@H]1O (single isomer, unassigned)
≤ 10 °C

Provide the reported ΔTm at 500 µM (system: KMT9 (Homo sapiens, UniProt Q9Y5N5)) for CNc1ncnc2c1ccn2[C@@H]1C[C@H](CN(CCCNCCc2ccccc2)c2cn[nH]c2)[C@@H](O)[C@H]1O
10 to 15 °C

Provide the reported ΔTm at 500 µM (system: KMT9 (Homo sapiens, UniProt Q9Y5N5)) for Nc1ncnc2c1ccn2[C@@H]1C[C@H](c2cccs2)[C@@H](O)[C@H]1O
≤ 10 °C

Provide the reported ΔTm at 500 µM (system: KMT9 (Homo sapiens, UniProt Q9Y5N5)) for CS(=O)(=O)n1ccc(-c2cn([C@@H]3C[C@H](CNCCCNCCc4ccccc4)[C@@H](O)[C@H]3O)c3ncnc(N)c23)n1
15 to 20 °C

Provide the reported ΔTm at 500 µM (system: KMT9 (Homo sapiens, UniProt Q9Y5N5)) for Cn1cc(-c2cn([C@@H]3C[C@H](CNCCCNCCc4ccccc4)[C@@H](O)[C@H]3O)c3ncnc(N)c23)cn1
15 to 20 °C

Provide the reported ΔTm at 500 µM (system: KMT9 (Homo sapiens, UniProt Q9Y5N5)) for CCC(=O)NCCCNC(=O)[C@H]1O[C@@H](n2cnc3c(N)ncnc32)[C@H](O)[C@@H]1O
≤ 10 °C

Provide the reported ΔTm at 500 µM (system: KMT9 (Homo sapiens, UniProt Q9Y5N5)) for Nc1ncnc2c1c(Br)cn2[C@@H]1C[C@H](CNCCCNCCc2ccc(F)cc2F)[C@@H](O)[C@H]1O
15 to 20 °C

Provide the reported ΔTm at 500 µM (system: KMT9 (Homo sapiens, UniProt Q9Y5N5)) for CNc1ncnc2c1ccn2[C@@H]1C[C@H](C(=O)NCCCNCCc2cccc(Oc3ccccc3)c2)[C@@H](O)[C@H]1O
15 to 20 °C

Provide the reported ΔTm at 500 µM (system: KMT9 (Homo sapiens, UniProt Q9Y5N5)) for CNc1ncnc2c1ccn2[C@@H]1C[C@H](CN2CCC23CCNC3)[C@@H](O)[C@H]1O (some centres unmarked)
≤ 10 °C

Provide the reported ΔTm at 500 µM (system: KMT9 (Homo sapiens, UniProt Q9Y5N5)) for CNc1ncnc2c1ccn2[C@@H]1C[C@H](CS(=O)(=O)CCNCCc2ccccc2)[C@@H](O)[C@H]1O
≤ 10 °C

Provide the reported ΔTm at 500 µM (system: KMT9 (Homo sapiens, UniProt Q9Y5N5)) for CNc1ncnc2c1ccn2[C@@H]1C[C@H](CN(CCCNCCc2ccccc2)c2ccn(C)n2)[C@@H](O)[C@H]1O
≤ 10 °C

Provide the reported ΔTm at 500 µM (system: KMT9 (Homo sapiens, UniProt Q9Y5N5)) for Nc1ncnc2c1c(-c1ncn[nH]1)cn2[C@@H]1C[C@H](CNCCCNCCc2ccccc2)[C@@H](O)[C@H]1O
15 to 20 °C

Provide the reported ΔTm at 500 µM (system: KMT9 (Homo sapiens, UniProt Q9Y5N5)) for CNc1ncnc2c1ccn2[C@@H]1C[C@H](C(=O)NCCCNCCc2ccc(Oc3ccc(Cl)cc3)c(F)c2)[C@@H](O)[C@H]1O
10 to 15 °C

Provide the reported ΔTm at 500 µM (system: KMT9 (Homo sapiens, UniProt Q9Y5N5)) for Nc1ncnc2c1c(-c1ccncc1)cn2[C@@H]1C[C@H](CNCCCNCCc2ccccc2)[C@@H](O)[C@H]1O
10 to 15 °C
